test system: CHO; experiment: In vitro 50% cell growth inhibition by the compound in CHO cells; format: functional, cell-based; conditions: Cricetulus griseus
pIC50: −log10 of the molar value.
Reported metric: pIC50

Chemical smiles	Experimental value
Cl.NCCCNCCCCNCCCNCCCNc1c2ccccc2nc2ccccc12	5.64
Cl.NCCCNCCCCNCCCNCCCCNC(=O)c1c2ccccc2nc2ccccc12	4.77
Cl.NCCCNCCCCNCCCNCCCCCNc1c2ccccc2nc2ccccc12	6.00
Cl.NCCCNCCCCNCCCNCCCCN=c1c2ccccc2[nH]c2ccccc12	5.64
Cl.NCCCNCCCCNCCCNCCCCCNC(=O)c1c2ccccc2nc2ccccc12	4.60
